Listed below: apparent KD of MS2 coat protein values for each entry.
# Test system: MS2 coat protein
# method.notes: apparent KD of MS2 coat protein; higher = weaker reporter binding
# reported.conditions: Eterna round: R107; input ligand: theophylline 20 uM

polymer.sequence	assayed.target	apparent KD of MS2 coat protein (nM)
GAAUUUAUAUGAAGGAGCGUCGAAAAUGGGUAAACAUGAGGAUCACCCAUGUAAAGGGAACGACAGGUAGGUCGCAUAUGGAUUC [AstromonsSSArgB#26]	MS2 coat protein	196
UGGGUACAUGAGGAUCACCCAUGUACUGAAGGAGCGAGAAAUAUCUCAGGUAGGUCGCAGACAUGAGGAUCACCCAUGUAGUAGG [Exclusion Arginine A GF 11]	MS2 coat protein	31.8
AAACAUGAGGCGGCCGCCACUGUAUGAACAUGAGGAUCACCCAUGUAUGUACCCAUGUGUGUACACAGGACCGGGCCAUGUGGAU [Exclusion Tryptophan B 4]	MS2 coat protein	32.3
GAUAUGGAAACAUGUCAGAUCCUUACCGGUCGAGGACCGGUACGGCCGCCACUCGGAAAUAUUGUACAUGAGGAUCACCCAUGUA [Ex Tryptophan A 18]	MS2 coat protein	16.1
AACAUGAGGAUCACCCAUGUAUUGGGUGAUACCAGCCUGAAUAAUGGCCCUUGGCAGCACCGCGCUAACUUUAUGUCUGCGAAAC [Erterean]	MS2 coat protein	456
GGUCUCUGGAGCGAUACCAGCUUAAGUGUACUGGCCAGGUACAUGAGGAUCACCCAUGUAAGCCCUUGGCAGCGCUCCAGAGACC [#1 Exclusion - Theophylline B Attempt #14 (HarryS)]	MS2 coat protein	16.1
UGUAUGGACUGAAGGAGCGGGAAAUAAACUUGAGGAUCACCCAGGUAAUAGGCGAAAGCCACCCAGGUAGGUCGCAGUCCAUACU	MS2 coat protein	38.5
AUUACAUGAGCAUCAGCACAUGAGGAUCACCGAGGACCGGUACGGCCGCCACUCGACACAUGAGGAUCACCCAUGUGUUGUUGUU [Exclusion Tryptophan A 3]	MS2 coat protein	345
AUUAAUUUAUUUCUCAAUUUAAUUUCAGAAGGAGCGUGAUGUUUCACAGGUAGGUCGCUGUUUACAUGAGGAUCACCCAUGUUUU [JR_SSArginiA_Sub004]	MS2 coat protein	44.4
UGUAUGUGAUCUGAUACCAGUCCAACUGGUAAAGCGUGAGGAUCACCCAUGCAAAAUUGGGACCCUUGGCAGCAGAUCGCAUACU	MS2 coat protein	290
ACACAUGAGGAUCACCCAUGUUCAAUAGAUACCAGUGAUACGGUGCACCCUUGGCAGCUGUUGCUGAGUGAUGGUUCCCUCGGAA [#22 SameState-TheophyllineA]	MS2 coat protein	75.6
UGAUAUGUGGGAAGGAGCGCAUACUUCACAUGAGGAUCACCCAUGUCAAGACGUGAGUCAGUGCAGGUAGGUCGCCUAGUUAUGA [Same State - Arginine B (Freestyle 19)]	MS2 coat protein	101

----------
# Test system: MS2 coat protein
# method.notes: apparent KD of MS2 coat protein; designed switch direction (-1 OFF switch, 1 ON switch): -1; higher = weaker reporter binding
# reported.conditions: input ligand: FMN 200 uM
Listed below: apparent KD of MS2 coat protein values for each entry.

polymer.sequence	apparent KD of MS2 coat protein [nM]
AGAUCUAGGACAGGAUAUAUAGAUGGCUUCAUCGAAGAUGAAGCCAUUACAUGAGGAUCACCCAUGUAGAAGGGUCCUAGAUCA [Omei Exc(NG) 2Av7] (Eterna round: R96, puzzle: Exclusion NG 2)	11.2
AGAUCUAGGACAGGAUAUACGGAUGUCUUCAUCGAAGAUGAAGACAUUACAUGAGGAUCACCCAUGUAGAAGGGUCCUAGAUCA [Omei Exc(NG) 2Av1] (Eterna round: R96, puzzle: Exclusion NG 2)	13.8
UUUUUUGUAGUGAGGAUAUCGUUGAGGAUGUGGAUCGAGAAGGCACAUGAGGAUCACCCAUGUUAGAUGUGGUU [JR_BMOE4_Sub083] (Eterna round: R96, puzzle: Brourd's mod of Exclusion 4)	363
UGAGUAGAUCCGAAGGGAGACAUGAGGAUCACCCAUGUAUUAAGUUUUUAUGCUCGUCGCCUACGUAACCGUAGGAC [Eternabot (Original) Solution 2] (Eterna round: R97, puzzle: Sensor, turn-off variant 1)	344

Where these numbers come from: the supplement of paper PMC9170038
